PROCEDURE SUMMARY: TOR pathway RTG branch CIT2 reporter changes – S. cerevisiae, GFP fusion, multiplex flow cytometry, primary screen (AID 1870);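 note: barcoded CIT2-GFP strain pooled with four other GFP strains with rapamycin as positive control; median GFP fluorescence per well over plate mean of DMSO wells so 100% = DMSO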
CONDITION LABEL: S. cerevisiae CIT2-GFP expression, 3 h, at 10 µM, hits give high values
READOUT KIND: percent response of DMSO control (%)
Could you give me the number in %? Just the number is fine.

Sample CCOc1ccc(C(=O)N2CCCC2C(=O)O)cc1 (stereo unspecified) ; percent response of DMSO control observed: 100

Sample COc1ccc(-c2[nH]ncc2CN(C)C(C)c2ccon2)c(OC)c1 (stereo unspecified) ; percent response of DMSO control observed: 106

Sample COc1ccc(N2C(=O)C3C(C2=O)C(C(=O)c2ccccc2)N2CCCC32)cc1 (stereo unspecified) ; percent response of DMSO control observed: 84.4

Sample CC1(C)CC(C(CC(=O)O)c2ccccc2)CCO1 (stereo unspecified) ; percent response of DMSO control observed: 99.6

Sample "O=C1ON=C(c2ccc(Cl)cc2)/C1=C/c1ccc(O)cc1" ; percent response of DMSO control observed: 112

Sample "Cn1c([N+](=O)[O-])cnc1COC(N)=O" ; percent response of DMSO control observed: 103

Taken from PubChem BioAssay.
